# testDetails: NCI Yeast Anticancer Drug Screen. Data for the bub3 strain (AID 167)
# testConditions: S. cerevisiae bub3 mutant strain, at 50.0 µM (retest, dose inferred, filed as 5.0), stronger effect = higher value
About 79,000 compounds went through this panel and 15% of them were active in at least one assay; those are over-represented in the sample as a whole.
Give growth inhibition for every item shown.
Numbers only, in %.

A selection of reference data follows.
CC(=O)N1CC(=O)NC1=S    -12
C=C1C(=O)OC2CC3(C)CCCC(C)C3=CC12 (stereo not given)    63
NNc1cccc([N+](=O)[O-])c1    94
CCOC(=O)NC(/C=C/c1ccccc1)NC(=O)OCC    -20
CCCCCC/C=C1\CCC(CN2CCCC2)C1=O (stereo not given)    99
CCC(CC)(c1ccccc1)C(O)c1ccccc1 (stereo not given)    94
O=C(OC12CC3CC(CC(C3)C1)C2)c1ccc(NCc2cc(O)ccc2O)cc1    91
CCCCCCN(CCCCCC)CCCCCCCCCCCO    99
CCCCCCCCCCCCCCCCCC[S+](C)CC (stereo not given)    98
CN1CCC(c2ccccc2)(c2ccccc2)C(=O)C1    96

Below are some compounds; for each one, tell me its growth inhibition.
1. O=C(/C=C/c1ccccc1)c1ccc(N=Cc2ccccc2)cc1
2. COc1ccc2c(c1)c(CC(=O)O)c(C)n2C(=O)c1ccc(Cl)cc1

1: 54; 2: 30

Would you mind listing growth inhibition for each of the following compounds?
1. CCN(CC)c1ccc(/C=C\C(=O)c2ccc(NC(C)=O)cc2)cc1
2. Cc1cc(C(=O)c2ccc(Cl)cc2)ccc1O
3. CCCCCCCCCCCC[n+]1ccc(CCCCCCCCC)cc1
4. Cc1ccc(/C=C2\CNC/C(=C\c3ccc(C)cc3)C2=O)cc1
5. C1CCC(CCCc2nn[nH]n2)CC1
6. CC(C)(C)C(=O)CC(c1ccccc1)c1ccccc1

[-4, 0, 99, 97, 78, 22]

----------
# testDetails: NCI Yeast Anticancer Drug Screen. Data for the bub3 strain (AID 167)
# testConditions: S. cerevisiae bub3 mutant strain, at 50.0 µM
The panel holds about 79,000 compounds, 15% with a hit somewhere; the sample as a whole holds those more often. Calls of active or inactive are those of the source. Rule as the data show it: active = growth inhibition above about 70%; inactive = the rest.
Write down the outcome that applies. Available outcomes: label 1 (active), label 0 (inactive)

Field: example entries. Status: answers known.
S=C1SCN(Cc2cccs2)CN1Cc1cccs1    label 1
O=C/C=C/c1ccc([N+](=O)[O-])cc1    label 1
CN(C)c1ccc(/C=C/c2sc3ccc4ccccc4c3[n+]2C)cc1    label 1

Tell me the assay call for Oc1ccc2ccccc2c1N=Nc1ccccn1 please.
label 1

Then O=C(Cc1ccccc1)C(F)(F)F ?
label 0

Now consider Oc1c(Cl)cc(Cl)cc1C(c1cc(Cl)cc(Cl)c1O)C(Cl)(Cl)Cl .
label 1

Queued: CCCCCCCCCCCCNCCCc1ccccc1
label 1

Here is the next compound: O=C(c1ccccc1)C(Br)C(Br)c1ccccc1 (centres undefined)
label 1

Likewise for CC(C)=C1C=C2CC[C@@H]3[C@](C)(CCC[C@@]3(C)C(=O)O)[C@H]2CC1 ?
label 1

Let us now turn to Cc1onc(-c2ccccc2)c1C(=O)N/N=C/c1cc(Cl)cc(Cl)c1O
label 1

Consider next the compound CCc1cccc(CC)c1N1C(=O)C=CC1=O in the same way.
label 1

# repeat for CCOc1ccc(C(C[N+](=O)[O-])Sc2ccccc2N)cc1 (centres undefined)
label 1

For CN(C)CCN(C)CC(C)(C)C(=O)/C=C/c1ccc(Cl)c(Cl)c1 then?
label 1

Now give it for CCOC(=O)C1=NN(c2ccccc2)C(=O)/C1=C\N1C(=O)/C(=C/c2cccc(O)c2)SC1=S too.
label 0

What about Cc1c2c(c(C)c3c[n+](C)ccc13)Oc1ccccc1O2 ?
label 1

What do you get for CC[n+]1ccc(Nc2ccc(NC(=O)c3ccc(Nc4cc[n+](CC)c5ccc([N+](=O)[O-])cc45)cc3)cc2)cc1 ?
label 1

Follow-up item: O=C(O)c1cc2c(s1)C(=O)c1sccc1C2=O
label 1

Please do the same for C[C@@H]1CCC([C@@H](C)[C@H]2CC[C@H]3[C@@H]4CC[C@H]5C[C@@H](O)CC[C@]5(C)[C@H]4CC[C@]23C)=NC1 as well.
label 1
